Test: Probe fluorescence ratio response to linolenic acid relative to ADIFAB2
Format: binding
Details: response relative to ADIFAB2
From the text: In an alternate preferred embodiment, the protein is rI-FABP that has Ala substituted for Leu at position 72 (rI-FABP-L72A) with the resulting probe named ADIFAB2. […] ADIFAB2 also has an altered spectral response, making it especially useful for measurements of FFAu in blood samples (Apple et al, Clinical Proteomics, (2004) 1:41-44, U.S. patent application Ser. No. 10/670,958). […] The baseline value for this ratio, measured in the absence of analyte, is designated R0. […]
Could you label it satisfied if measured DR/DR LNA is 1 or higher, and not satisfied otherwise?

molecule	label_value
72S 73L 74A (protein, listed as Rattus norvegicus, PEPTIDE (1)...(131) wild-type rat intestinal fatty acid binding protein) AFDGTWKVDRNENYEKFMEKMGINVVKRKLGAHDNLKLTITQEGNKFTVKESSNFRNIDVVFELGVDFAYSSLAGTELTGTWTMEGNKLVGKFKRVDNGKELIAVREISGNELIQTYTYEGVEAKRIFKKE	satisfied
78V, 72A (protein, listed as Rattus norvegicus, PEPTIDE (1)...(131) wild-type rat intestinal fatty acid binding protein) AFDGTWKVDRNENYEKFMEKMGINVVKRKLGAHDNLKLTITQEGNKFTVKESSNFRNIDVVFELGVDFAYSAADGTEVTGTWTMEGNKLVGKFKRVDNGKELIAVREISGNELIQTYTYEGVEAKRIFKKE	not satisfied
70M, 72A (protein, listed as Rattus norvegicus, PEPTIDE (1)...(131) wild-type rat intestinal fatty acid binding protein) AFDGTWKVDRNENYEKFMEKMGINVVKRKLGAHDNLKLTITQEGNKFTVKESSNFRNIDVVFELGVDFAMSAADGTELTGTWTMEGNKLVGKFKRVDNGKELIAVREISGNELIQTYTYEGVEAKRIFKKE	not satisfied
18I 31F 73V 72A (protein, listed as Rattus norvegicus, PEPTIDE (1)...(131) wild-type rat intestinal fatty acid binding protein) AFDGTWKVDRNENYEKFIEKMGINVVKRKLFAHDNLKLTITQEGNKFTVKESSNFRNIDVVFELGVDFAYSAVDGTELTGTWTMEGNKLVGKFKRVDNGKELIAVREISGNELIQTYTYEGVEAKRIFKKE	satisfied
36P, 72A (protein, listed as Rattus norvegicus, PEPTIDE (1)...(131) wild-type rat intestinal fatty acid binding protein) AFDGTWKVDRNENYEKFMEKMGINVVKRKLGAHDNPKLTITQEGNKFTVKESSNFRNIDVVFELGVDFAYSAADGTELTGTWTMEGNKLVGKFKRVDNGKELIAVREISGNELIQTYTYEGVEAKRIFKKE	not satisfied
73Q, 72A (protein, listed as Rattus norvegicus, PEPTIDE (1)...(131) wild-type rat intestinal fatty acid binding protein) AFDGTWKVDRNENYEKFMEKMGINVVKRKLGAHDNLKLTITQEGNKFTVKESSNFRNIDVVFELGVDFAYSAQDGTELTGTWTMEGNKLVGKFKRVDNGKELIAVREISGNELIQTYTYEGVEAKRIFKKE	satisfied
